Data credit: patent US6291442A

Tested on: Drosophila Shaker H4 potassium ion channels
Test: Patch voltage clamp recording, time course of channel closure (deactivation)
Settings: shaker h4 channel patch, 500 µM
assayMetric: Approximate Increase in Time Course of Closure (X)

Observe how each entry below is paired with its result.
O=C(O)c1ccccc1C(=O)c1ccc(Cl)cc1	2
CC(=O)Nc1ccc(C=Cc2ccc([N+](=O)[O-])cc2S(=O)(=O)O)c(S(=O)(=O)O)c1	2
O=C(O)c1cccnc1Nc1cccc(C(F)(F)F)c1 [niflumic acid, reference compound]	2.4
Cc1ccc(C(=O)c2ccccc2C(=O)O)cc1	2
CC(C(=O)O)c1cccc(Oc2ccccc2)c1 (stereo not shown) [fenoprofen, reference compound]	2.2

A = COc1ccc(Oc2c(C(=O)O)cccc2[N+](=O)[O-])cc1
B = O=C(O)c1ccccc1[S+]([O-])c1ccccc1 (stereo not shown) [1-carboxydiphenyl sulfoxide]
C = Nc1cccc(C(=O)O)c1Oc1ccc(Cl)cc1
Endpoint returns the given compounds ordered by ascending Approximate Increase in Time Course of Closure. API: response body holds the labels in the requested order. A, B, C
